- targetEntity: BCL-XL (Homo sapiens)
- Construct: endogenous in cells; host or cells: MOLT-4
- Sequence (Q07817 whole entry): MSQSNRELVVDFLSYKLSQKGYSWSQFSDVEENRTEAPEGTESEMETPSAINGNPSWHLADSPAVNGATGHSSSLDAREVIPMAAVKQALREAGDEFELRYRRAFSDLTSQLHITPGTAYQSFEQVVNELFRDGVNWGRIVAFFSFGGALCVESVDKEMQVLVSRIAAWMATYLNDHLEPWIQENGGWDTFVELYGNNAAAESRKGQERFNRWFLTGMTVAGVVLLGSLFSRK
- experimentNotes: BCL-XL degradation assay, western blot in MOLT-4 cells, 16 h
- Type: cell-based
- conditionInfo: western blot, MOLT-4 cells, 16 h; read-out: Bcl-xL WB in MOLT-4 degradation 16 h: Mean external-Abs DC50
// values below are reported DC50

Worked examples, 5 molecules total:
Cc1ncsc1-c1ccc([C@H](C)NC(=O)[C@@H]2C[C@@H](O)CN2C(=O)[C@@H](NC(=O)CCCCCCCCNC(=O)c2nc(N3CCc4cccc(C(=O)Nc5nc6ccccc6s5)c4C3)ccc2-c2cnn(CC3CCOCC3)c2C)C(C)(C)C)cc1: 100 to 500 nM
C#Cc1ccc([C@H](C)NC(=O)[C@@H]2C[C@@H](O)CN2C(=O)[C@@H](NC(=O)N2CCC3(CCC(C(=O)N4CCN(CC[C@H](CSc5ccccc5)Nc5ccc(S(=O)(=O)NC(=O)c6ccc(N7CCN(CC8=C(c9ccc(Cl)cc9)CCC(C)(C)C8)CC7)cc6)cc5S(=O)(=O)C(F)(F)F)CC4)CC3)CC2)C(C)(C)C)cc1: > 1000 nM
Cc1ncsc1-c1ccc([C@H](C)NC(=O)[C@@H]2C[C@@H](O)CN2C(=O)[C@@H](NC(=O)CCCCCCCCC(=O)N(C)CC#Cc2ccc(OCCCc3sc(N4CCc5cccc(C(=O)Nc6nc7ccccc7s6)c5C4)nc3C(=O)O)c(F)c2)C(C)(C)C)cc1: < 10 nM
Cc1ncsc1-c1ccc([C@H](C)NC(=O)[C@@H]2C[C@@H](O)CN2C(=O)C(c2cc(OC3CN(c4ccc(S(=O)(=O)NC(=O)c5nc(N6CCc7cccc(C(=O)Nc8nc9ccccc9s8)c7C6)ccc5-c5cnn(CC6CCCCC6)c5C)cc4)C3)no2)C(C)C)cc1 (some centres unmarked): < 10 nM
Cc1cc(N(C)c2ccc(-c3cnn(CC4CCCCC4)c3C)c(C(=O)NCCCCCCOc3cc(-c4scnc4C)ccc3CNC(=O)[C@@H]3C[C@@H](O)CN3C(=O)[C@@H](NC(=O)C3(F)CC3)C(C)(C)C)n2)nnc1Nc1nc2ccccc2s1: > 1000 nM

*Q* Requested field: DC50. Item: "Cc1ncsc1-c1ccc(CNC(=O)[C@@H]2C[C@@H](O)CN2C(=O)[C@@H](NC(=O)C2(F)CC2)C(C)(C)C)c(OCCN2CC3(C2)CN(C(=O)c2nc(N4CCc5cccc(C(=O)Nc6nc7ccccc7s6)c5C4)ccc2-c2cnn(CC4CCCCC4)c2C)C3)c1"
*A* 100 to 500 nM

*Q* Requested field: DC50. Item: "Cc1ncsc1-c1ccc([C@@H](CC(=O)N(C)CC(=O)N2CCN(CC[C@H](CSc3ccccc3)Nc3ccc(S(=O)(=O)NC(=O)c4ccc(N5CCN(CC6=C(c7ccc(Cl)cc7)CCC(C)(C)C6)CC5)cc4)cc3S(=O)(=O)C(F)(F)F)CC2)NC(=O)[C@@H]2C[C@@H](O)CN2C(=O)[C@@H](NC(=O)C2(F)CC2)C(C)(C)C)cc1"
*A* 100 to 500 nM

*Q* Requested field: DC50. Item: "Cc1ncsc1-c1ccc(CNC(=O)[C@@H]2C[C@@H](O)CN2C(=O)[C@H](c2cc(N3CC4(CN(CCCC(=O)N(C)CC#Cc5ccc(OCCCc6ccc(N7CCc8cccc(C(=O)Nc9nc%10ccccc%10s9)c8C7)nc6C(=O)O)c(F)c5)C4)C3)no2)C(C)C)cc1"
*A* < 10 nM

Data provenance is patent US20250197387A1.
